src = the RNAGym collection of RNA variant scans (doi:10.7554/elife.80360)

B1: Twister Ribozyme (parent)
chain: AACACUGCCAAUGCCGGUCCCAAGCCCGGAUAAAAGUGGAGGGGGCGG

Variants of: B1
Experiment: self-cleavage, relative activity (ratio to wild type); higher = more cleavage; co-transcriptional
Property Name: self-cleavage
One number for each entry.

Previously resolved entries follow.
Variant Name: A32U G36C
Property Name: self-cleavage
Measured Result: 0.435
--
Variant Name: C9G G29U
Property Name: self-cleavage
Measured Result: 0.447
--
Variant Name: G16C A33U
Property Name: self-cleavage
Measured Result: 0.359
--
Variant Name: G29C G45U
Property Name: self-cleavage
Measured Result: 0.362
--
Variant Name: G16A G29C
Property Name: self-cleavage
Measured Result: 0.339

Below are some variants; for each one, tell me its self-cleavage.
1. G29A U37A
2. C19G G44C
3. A4C U37G
4. C9U G28A
5. G16C C26G
6. C9A G24C

1. 0.569
2. 0.27
3. 0.623
4. 0.562
5. 0.0968
6. 0.119
